Measured pIC50 of individual entries
# Tested on: T. cruzi-infected H9C2 cardiomyocytes, high-content imaging
# Measurement notes: intracellular T. cruzi amastigote inhibition, imaging, H9C2 host cardiomyocytes, host toxicity (AID 1159565);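 note: infected cells incubated 72 h after plating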
# Condition context: measured here: amastigotes per cell
pIC50: −log10 of the molar value.
Measured quantity: pIC50

>>> readout_value("CC(C)c1cc(C(=O)N2CCCC(c3cc4ncccc4[nH]3)C2)on1 (stereo unspecified)")
6.00
>>> readout_value("Cc1c(C(C)NC(=O)Nc2cccc(Cl)c2)sc2ncnn12 (stereo unspecified)")
6.80
>>> readout_value("O=C(CC1(O)C(=O)N(Cc2cccs2)c2ccc(Br)cc21)c1cccnc1 (stereo unspecified)")
4.60
>>> readout_value("COCc1cc(Nc2ccc(Cl)cc2)nc(-c2ccccn2)n1")
5.60
>>> readout_value("Cc1[nH]n2c(=O)c3c(nc2c1-c1ccc(F)cc1)CCCC3")
6.10
>>> readout_value("CN(CCOc1ccc(Cl)cc1)Cc1nc(N)nc(N(C)C)n1")
5.10
>>> readout_value("Cc1ccc(Nc2nc(-c3ccccn3)cc(N3CCCC(O)C3)n2)cc1 (stereo unspecified)")
5.60
>>> readout_value("O=C(CSc1nnc2ccc(-c3ccc(F)cc3)nn12)N1CCCCC1")
6.00
>>> readout_value("COc1ccc(Nc2nc(NC3CCC(O)CC3)ncc2Br)c(C(N)=O)c1 (stereo unspecified)")
5.70
>>> readout_value("Cc1nc(-c2nc(NCc3ccc(Cl)cc3)c3cccnc3c2O)n[nH]1")
5.89
